assay: Qualitative solubility in representative organic solvents; format: physicochemical; details: dimethylformamide, qualitative
measurement kind: solubility in dimethylformamide

# compound, value
records = [
    ("CN(C)CCC[Si](C)(C)O[Si]1(O)n2c3c4ccccc4c2N=C2N=C(N=c4c5ccccc5c(n41)=NC1=NC(=N3)c3ccccc31)c1ccccc12.COC(=O)c1ccccc1C(=O)O (stereo not drawn)", "soluble"),
    ("CN(C)CCC[Si](C)(C)O[Si]1(O)n2c3c4ccccc4c2N=C2N=C(N=c4c5ccccc5c(n41)=NC1=NC(=N3)c3ccccc31)c1ccccc12.CP(C)(=O)O (stereo not drawn)", "soluble"),
    ("CN(C)CCC[Si](C)(C)O[Si-2]123(F)n4c5c6ccccc6c4N=C4c6ccccc6C(=[N+]41)N=c1c4ccccc4c(n12)=NC1=[N+]3C(=N5)c2ccccc21", "soluble"),
]

###

experiment: Qualitative solubility in representative organic solvents; assay type: physicochemical; conditions: hexanes, qualitative

# compound, solubility in hexanes
data = [
    ("CO[Si]1(O[Si](C)(C)CCCN(C)C)n2c3c4ccccc4c2N=C2N=C(N=c4c5ccccc5c(n41)=NC1=NC(=N3)c3ccccc31)c1ccccc12 (stereo not drawn)", "insoluble"),
    ("CN(C)CCC[Si](C)(C)O[Si]1(O)n2c3c4ccccc4c2N=C2N=C(N=c4c5ccccc5c(n41)=NC1=NC(=N3)c3ccccc31)c1ccccc12.CP(C)(=O)O (stereo not drawn)", "insoluble"),
    ("CN(C)CCC[Si](C)(C)O[Si]1(O)n2c3c4ccccc4c2N=C2N=C(N=c4c5ccccc5c(n41)=NC1=NC(=N3)c3ccccc31)c1ccccc12.COC(=O)c1ccccc1C(=O)O (stereo not drawn)", "insoluble"),
]
